Experiment: Metabolic stability in human liver microsomes at 1 uM after 40 mins
Type: ADME, Microsome
Conditions: read-out: Stability
READOUT NAME: remaining at 40 min, 1 µM
Quick note: unit goes after the number.

INPUT: Which remaining at 40 min, 1 µM value is on record for `Cc1ccc(-n2nc(C(C)(C)C)cc2NC(=O)Nc2ccc(OCCN3CCOCC3)c3ccccc23)cc1` ?
OUTPUT: 79%

* * *

Assay: Partition coefficient, log P of the compound
Format: physicochemical
Details: octanol/water
READOUT NAME: logP
Give bare numbers.

INPUT: Data request, read-out logP, for Cc1ccc(-n2nc(C(C)(C)C)cc2NC(=O)Nc2ccc(OCCN3CCOCC3)c3ccccc23)cc1 [DORAMAPIMOD]
OUTPUT: 5.2
